TEST SYSTEM: Alpha-1B adrenergic receptor (Homo sapiens)
Sequence (P35368 whole entry): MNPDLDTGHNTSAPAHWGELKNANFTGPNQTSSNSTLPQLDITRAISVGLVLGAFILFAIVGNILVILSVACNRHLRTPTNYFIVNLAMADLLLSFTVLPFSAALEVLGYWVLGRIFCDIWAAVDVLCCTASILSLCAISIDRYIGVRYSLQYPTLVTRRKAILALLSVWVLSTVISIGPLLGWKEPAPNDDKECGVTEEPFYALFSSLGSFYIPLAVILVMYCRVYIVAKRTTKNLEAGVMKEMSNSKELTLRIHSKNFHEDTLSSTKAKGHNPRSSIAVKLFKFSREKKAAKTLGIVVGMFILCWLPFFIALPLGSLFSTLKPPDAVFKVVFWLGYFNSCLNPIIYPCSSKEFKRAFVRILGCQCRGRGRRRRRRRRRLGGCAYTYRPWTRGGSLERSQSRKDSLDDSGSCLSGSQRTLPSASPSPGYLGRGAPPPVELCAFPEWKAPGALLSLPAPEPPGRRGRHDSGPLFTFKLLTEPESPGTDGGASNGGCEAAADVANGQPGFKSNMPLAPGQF
Structures can show the parent of a compound that is named as a salt.
MEASURED METRIC: pKi
Reminder that pKi means the negative base-10 logarithm of the concentration expressed in mol/L.

Some entries whose results are on file:
MOLECULE	pKi
CCCCCCCCCCCCCCCCOC[C@H](COP(=O)([O-])OCC[N+](C)(C)C)OC(C)=O	5.35
CN(C)C(=O)C(CCN1CCC(O)(c2ccc(Cl)cc2)CC1)(c1ccccc1)c1ccccc1 [LOPERAMIDE HYDROCHLORIDE]	5.43
CCCCCNC(=N)N/N=C/c1c[nH]c2ccc(OC)cc12 [TEGASEROD MALEATE]	5.58
CN1C2CCC1CC(OC(c1ccc(F)cc1)c1ccc(F)cc1)C2 (stereo not drawn)	6.58

Exercise: pKi lookup needed for O=S1(=O)c2cccc3cccc(c23)N1CCCN1CCN(c2ccc(F)cc2)CC1 [FANANSERIN] , thanks.
Solution: 6.07

Exercise: Try this molecule too: NCCc1cn(S(=O)(=O)c2c(Cl)nc3sccn23)c2ccccc12
Solution: 5.31

Exercise: Try this molecule too: Brc1c(NC2=NCCN2)ccc2nccnc12
Solution: 5.38

Exercise: Try this molecule too: Clc1cccc(Cl)c1N=C1NCCN1 [CLONIDINE HYDROCHLORIDE]
Solution: 5.58

Exercise: Try this molecule too: N#Cc1ccc2[nH]cc(CCCCN3CCN(c4ccc5oc(C(N)=O)cc5c4)CC3)c2c1 [VILAZODONE HYDROCHLORIDE]
Solution: 5.54

Exercise: Try this molecule too: COc1ccc(NS(=O)(=O)c2sc3ccc(Cl)cc3c2C)cc1N1CCNCC1
Solution: 5.57

Exercise: Try this molecule too: CN1C[C@H](C(=O)N[C@]2(C)O[C@@]3(O)[C@@H]4CCCN4C(=O)[C@H](Cc4ccccc4)N3C2=O)C[C@@H]2c3cccc4[nH]cc(c34)C[C@H]21 [DIHYDROERGOTAMINE MESYLATE]
Solution: 6.93

Exercise: Try this molecule too: C[C@@H](NCCCc1cccc(C(F)(F)F)c1)c1cccc2ccccc12 [CINACALCET HYDROCHLORIDE]
Solution: 5.54

---

Where a name gives a salt, the structure may show the parent alone.
Consider molecules characterized by their pKi with D(2) dopamine receptor (Homo sapiens, UniProt P14416).
Sequence (P14416 whole entry): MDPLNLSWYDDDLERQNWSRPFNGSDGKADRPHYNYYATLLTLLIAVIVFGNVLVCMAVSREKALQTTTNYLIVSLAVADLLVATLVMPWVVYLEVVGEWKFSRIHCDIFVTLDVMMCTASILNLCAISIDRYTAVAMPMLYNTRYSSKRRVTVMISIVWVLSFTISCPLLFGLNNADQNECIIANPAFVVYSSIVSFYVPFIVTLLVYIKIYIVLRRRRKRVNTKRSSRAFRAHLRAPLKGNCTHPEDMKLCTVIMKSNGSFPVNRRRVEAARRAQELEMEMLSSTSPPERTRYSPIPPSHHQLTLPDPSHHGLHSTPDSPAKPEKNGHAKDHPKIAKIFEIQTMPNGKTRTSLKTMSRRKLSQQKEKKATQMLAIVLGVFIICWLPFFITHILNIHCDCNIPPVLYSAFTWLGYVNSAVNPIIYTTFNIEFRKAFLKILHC
Reminder that pKi means the negative base-10 logarithm of the concentration expressed in mol/L.

Some entries whose results are on file:
MOLECULE	OBSERVED
COC(=O)C1=C(C)NC(C)=C(C(=O)OCCCN2CCC(c3ccccc3)(c3ccccc3)CC2)[C@H]1c1cccc([N+](=O)[O-])c1 [NIGULDIPINE]	6.55
CN[C@@H]1CCc2[nH]c3ccc(C(N)=O)cc3c2C1 [FROVATRIPTAN SUCCINATE]	6.16
CN1C[C@H](C(=O)N[C@]2(C)O[C@@]3(O)[C@@H]4CCCN4C(=O)[C@H](Cc4ccccc4)N3C2=O)C[C@@H]2c3cccc4[nH]cc(c34)C[C@H]21 [DIHYDROERGOTAMINE MESYLATE]	7.22

Now look at this one.
Exercise: pKi lookup needed for CCc1nn(CCCN2CCN(c3cccc(Cl)c3)CC2)c(=O)n1CCOc1ccccc1 [NEFAZODONE HYDROCHLORIDE] , thanks.
Solution: 6.13

---

TEST SYSTEM: Sigma intracellular receptor 2 (Homo sapiens, UniProt Q5BJF2)
Sequence (Q5BJF2 whole entry): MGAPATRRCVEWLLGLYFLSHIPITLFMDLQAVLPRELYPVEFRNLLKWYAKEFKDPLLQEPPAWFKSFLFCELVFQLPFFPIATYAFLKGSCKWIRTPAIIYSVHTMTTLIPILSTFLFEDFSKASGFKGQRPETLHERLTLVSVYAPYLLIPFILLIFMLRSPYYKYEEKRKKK
TEST PROTOCOL: PDSP Secondary Binding target: TMEM97 - Compounds are tested at 10 uM concentration, plate are incubated at room temperature in the dark for 90 minutes. Reaction are stopped by vacuum filtration onto 0.3% polyethyleneimine soaked filter mats using Filtermate harvester. Scintillation cocktail is then melted onto microwave-dried filters on a hot plate and the radio activity is counted in Microbia counter.
Where a name gives a salt, the structure may show the parent alone.
The following compounds are shown together with reported pKi values.
Reminder that pKi means the negative base-10 logarithm of the concentration expressed in mol/L.

Some entries whose results are on file:
COMPOUND	TEST SYSTEM	pKi
COc1ccc(NS(=O)(=O)c2sc3ccc(Cl)cc3c2C)cc1N1CCNCC1	Sigma intracellular receptor 2 (Homo sapiens, UniProt Q5BJF2)	6.18
NC[C@@H]1O[C@H](C23CC4CC(CC(C4)C2)C3)Cc2c1ccc(O)c2O	Sigma intracellular receptor 2 (Homo sapiens, UniProt Q5BJF2)	6.12
CCc1ccc(OCc2ccccc2C(=O)Nc2ccc3nc(C)cc(N)c3c2)cc1	Sigma intracellular receptor 2 (Homo sapiens, UniProt Q5BJF2)	6.15

Now look at this one.
Exercise: pKi lookup needed for N#Cc1ccc2[nH]cc(CCCCN3CCN(c4ccc5oc(C(N)=O)cc5c4)CC3)c2c1 [VILAZODONE HYDROCHLORIDE] , thanks.
Solution: 5.96

---

TEST SYSTEM: Mu-type opioid receptor (Homo sapiens)
Sequence (P35372 whole entry): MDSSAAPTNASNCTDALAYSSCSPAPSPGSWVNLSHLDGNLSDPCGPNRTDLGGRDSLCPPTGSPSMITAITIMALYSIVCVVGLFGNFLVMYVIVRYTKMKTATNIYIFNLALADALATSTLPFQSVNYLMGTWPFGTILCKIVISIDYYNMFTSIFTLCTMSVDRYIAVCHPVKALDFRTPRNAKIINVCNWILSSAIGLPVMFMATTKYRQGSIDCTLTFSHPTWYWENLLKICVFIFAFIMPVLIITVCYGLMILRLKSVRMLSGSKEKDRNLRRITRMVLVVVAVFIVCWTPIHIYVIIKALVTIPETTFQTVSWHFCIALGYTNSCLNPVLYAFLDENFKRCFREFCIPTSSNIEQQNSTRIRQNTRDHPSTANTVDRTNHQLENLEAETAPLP
Note to self: Ki under 1000 nM means 1 (yes), ties and anything higher get 0 (no).

MOLECULE	CATEGORY
OC1(c2ccc(Cl)cc2)CCN(Cc2c[nH]c3ccccc23)CC1	1 (yes)

Exercise: Please determine if C[C@H](NC[C@H](O)CP(=O)(O)CC1CCCCC1)c1ccc(Cl)c(Cl)c1 is below 1000 nM in terms of Ki.
Solution: 0 (no)

---

The following molecules are shown together with reported pKi values.
TEST SYSTEM: UniProt:P30536
Sequence (P30536 whole entry): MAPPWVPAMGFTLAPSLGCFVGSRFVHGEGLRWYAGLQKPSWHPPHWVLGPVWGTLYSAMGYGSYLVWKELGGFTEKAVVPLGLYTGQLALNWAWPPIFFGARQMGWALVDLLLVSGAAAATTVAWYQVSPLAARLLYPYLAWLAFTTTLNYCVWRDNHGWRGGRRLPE
Structures can show the parent of a compound that is named as a salt.
Reminder that pKi means the negative base-10 logarithm of the concentration expressed in mol/L.

MOLECULE	MEASURED METRIC	OBSERVED
CCc1nn(CCCN2CCN(c3cccc(Cl)c3)CC2)c(=O)n1CCOc1ccccc1 [NEFAZODONE HYDROCHLORIDE]	pKi	5.70
Cc1cc(C)cc(-c2cnc3cc(Cl)c(-c4cccc(O)c4)cc3c2OCCCN)c1	pKi	6.28
Cc1cc([C@@H](C)Nc2cccc(-c3cc(C)c(C(=O)N[C@@H](C)C(=O)O)c(C)c3)c2)ccc1Cl	pKi	5.86
COc1ccnc(N2CCC3(CCCN(Cc4c[nH]c5ccccc45)C3=O)CC2)n1	pKi	6.10
CC(C)Oc1ccccc1C(=O)Nc1ccccc1C(=O)Nc1cccc(S(=O)(=O)C(F)(F)F)c1	pKi	6.95

Exercise: pKi lookup needed for Cc1nc(C(=O)N2CCC[C@H]2Cc2nnc(-c3ccccc3)o2)c(-c2ccccc2F)s1 , thanks.
Solution: 6.10

Exercise: Try this molecule too: CCCCCCCCCCCCC/C=C/[C@@H](O)[C@@H](N)COP(=O)(O)O
Solution: 5.51

Exercise: Try this molecule too: CN(C)S(=O)(=O)c1ccc(NC(=S)N2CCC(C(O)(c3ccccc3)c3ccccc3)CC2)cc1
Solution: 6.01

Exercise: Try this molecule too: CC1(C)SSC(C)(C)[C@@H](NC(=O)[C@@H](N)Cc2ccc(O)cc2)C(=O)NCC(=O)N[C@@H](Cc2ccccc2)C(=O)N[C@H]1C(=O)O
Solution: 5.79

Exercise: Try this molecule too: CN1C(=O)[C@@H](NC(=O)c2cc3ccccc3[nH]2)N=C(c2ccccc2)c2ccccc21 [DEVAZEPIDE]
Solution: 5.48

---

TEST SYSTEM: Alpha-1D adrenergic receptor (Homo sapiens, UniProt P25100)
Sequence (P25100 whole entry): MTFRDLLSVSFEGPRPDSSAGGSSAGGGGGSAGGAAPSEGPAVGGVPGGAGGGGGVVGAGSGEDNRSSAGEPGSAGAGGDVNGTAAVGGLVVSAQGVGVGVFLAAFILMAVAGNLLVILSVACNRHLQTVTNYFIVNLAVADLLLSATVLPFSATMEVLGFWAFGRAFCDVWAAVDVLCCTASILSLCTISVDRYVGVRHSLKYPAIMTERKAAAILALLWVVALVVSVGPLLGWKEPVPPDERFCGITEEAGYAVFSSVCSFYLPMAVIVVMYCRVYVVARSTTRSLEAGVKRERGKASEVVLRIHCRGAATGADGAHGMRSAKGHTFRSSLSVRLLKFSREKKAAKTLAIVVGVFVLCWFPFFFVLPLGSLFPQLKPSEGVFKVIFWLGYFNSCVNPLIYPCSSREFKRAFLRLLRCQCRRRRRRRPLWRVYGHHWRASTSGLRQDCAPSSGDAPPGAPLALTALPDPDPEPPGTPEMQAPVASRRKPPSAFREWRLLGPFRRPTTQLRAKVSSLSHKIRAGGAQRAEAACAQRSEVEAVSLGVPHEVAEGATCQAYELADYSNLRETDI
Structures can show the parent of a compound that is named as a salt.
MEASURED METRIC: Ki (nM)
Provide the reading as a plain figure in nM.

Some entries whose results are on file:
COMPOUND	Ki [nM]
N#Cc1ccc2[nH]cc(CCCCN3CCN(c4ccc5oc(C(N)=O)cc5c4)CC3)c2c1 [VILAZODONE HYDROCHLORIDE]	716
Cc1ccc2c(c1)c1c(n2CCc2ccc(C)nc2)CCN(C)C1 [LATREPIRDINE]	767

Now look at this one.
Exercise: Ki lookup needed for CCc1cc2c(cc1CC)CC(NC[C@H](O)c1ccc(O)c3[nH]c(=O)ccc13)C2 , thanks.
Solution: 731
